protocolNotes: Nrf2 qHTS screen for inhibitors: Validation (AID 493153)
assayConditions: A549 ARE-Fluc reporter, 18-24 h; measured here: cytotoxicity max response
Results filed as inconclusive are left out.
The following compounds are shown together with reported viability change values.

{"compound": "Cc1ccc(O)c(N=Nc2ccccc2)n1", "measureUnit": "%", "viability change": 0.002}
{"compound": "COc1ccc(NC(=O)/C=C/c2ccc(Cl)cc2)cc1", "measureUnit": "%", "viability change": -1.36}
{"compound": "Fc1cccc(/C=N/N=C/c2cccc(F)c2)c1", "measureUnit": "%", "viability change": 1.98}
{"compound": "COc1cccc(C(=O)NCCN2CCN(c3ccc(Cl)cc3)CC2)c1", "measureUnit": "%", "viability change": -10}
{"compound": "O=C(O)CNC(=O)C(CS)Cc1ccccc1 (stereo not given)", "measureUnit": "%", "viability change": 2.31}
{"compound": "O=C(O)CC[C@@H](C(=O)O)N1C(=O)c2ccccc2C1=O", "measureUnit": "%", "viability change": 9.01}
{"compound": "O=C(O)CC1CCCc2ccccc2C1O (stereo not given)", "measureUnit": "%", "viability change": 2.15}
{"compound": "C#CCN1C(C)=C(C(=O)OC)C(c2cccc([N+](=O)[O-])c2)C(C(=O)OCC)=C1C (stereo not given)", "measureUnit": "%", "viability change": -0.517}
{"compound": "COc1cc2nc(N3CCN(C(=O)OCc4ccccc4)C(C(=O)NC(C)(C)C)C3)nc(N)c2cc1OC (stereo not given)", "measureUnit": "%", "viability change": -20.4}
{"compound": "CC(C)NC[C@@H](O)c1ccc(O)c(O)c1", "measureUnit": "%", "viability change": 0.444}
{"compound": "NC(N)=NC(=O)c1nc(Cl)c(N2CCCCCC2)nc1N", "measureUnit": "%", "viability change": -0.682}
{"compound": "CN1[C@@H](CC(=O)c2ccccc2)CCC[C@H]1C[C@H](O)c1ccccc1", "measureUnit": "%", "viability change": -11}
{"compound": "OCC1O[C@H](O)C(Cl)C(O)C1O (stereo not given in full)", "measureUnit": "%", "viability change": 4.21}
{"compound": "C=C[C@H]1CN2CC[C@@H]1C[C@@H]2[C@@H](O)c1ccnc2ccc(OC)cc12", "measureUnit": "%", "viability change": -1.39}
{"compound": "NCCCCC(=O)O", "measureUnit": "%", "viability change": 11.5}
{"compound": "CO/N=C(\\C(=O)N[C@@H]1C(=O)N2C(C(=O)O)=C(COC(C)=O)CS[C@H]12)c1csc(N)n1", "measureUnit": "%", "viability change": -5.9}
{"compound": "Clc1ccc(N2CCN(Cc3cc4ccccn4n3)CC2)cc1", "measureUnit": "%", "viability change": 2.97}
{"compound": "O=Nc1ccc2oc(=O)ccc2c1", "measureUnit": "%", "viability change": 1.8}
{"compound": "CNCC[C@H](Oc1ccc(C(F)(F)F)cc1)c1ccccc1", "measureUnit": "%", "viability change": 1.58}
{"compound": "NC(CCCP(=O)(O)O)C(=O)O (stereo not given)", "measureUnit": "%", "viability change": 3.42}
{"compound": "COc1cc2c(CCNC(C)=O)c[nH]c2cc1Cl", "measureUnit": "%", "viability change": 2.33}
{"compound": "Cn1cc(C2=C(c3ccc(Cl)cc3Cl)C(=O)NC2=O)c2ccccc21", "measureUnit": "%", "viability change": -10.9}
{"compound": "O=C1/C(=C/c2ccsc2)CC/C1=C\\c1cccs1", "measureUnit": "%", "viability change": -8.76}
{"compound": "CC1OC1P(=O)(O)O (stereo not given)", "measureUnit": "%", "viability change": 11.8}
{"compound": "CCN1/C(=C/C(C)=O)Sc2ccc(OC)cc21", "measureUnit": "%", "viability change": -5.53}

# credit: PubChem BioAssay (NCATS)
